- assay system: PTK2B (FAK2) (Homo sapiens, UniProt Q14289)
- Sequence (Q14289 whole entry): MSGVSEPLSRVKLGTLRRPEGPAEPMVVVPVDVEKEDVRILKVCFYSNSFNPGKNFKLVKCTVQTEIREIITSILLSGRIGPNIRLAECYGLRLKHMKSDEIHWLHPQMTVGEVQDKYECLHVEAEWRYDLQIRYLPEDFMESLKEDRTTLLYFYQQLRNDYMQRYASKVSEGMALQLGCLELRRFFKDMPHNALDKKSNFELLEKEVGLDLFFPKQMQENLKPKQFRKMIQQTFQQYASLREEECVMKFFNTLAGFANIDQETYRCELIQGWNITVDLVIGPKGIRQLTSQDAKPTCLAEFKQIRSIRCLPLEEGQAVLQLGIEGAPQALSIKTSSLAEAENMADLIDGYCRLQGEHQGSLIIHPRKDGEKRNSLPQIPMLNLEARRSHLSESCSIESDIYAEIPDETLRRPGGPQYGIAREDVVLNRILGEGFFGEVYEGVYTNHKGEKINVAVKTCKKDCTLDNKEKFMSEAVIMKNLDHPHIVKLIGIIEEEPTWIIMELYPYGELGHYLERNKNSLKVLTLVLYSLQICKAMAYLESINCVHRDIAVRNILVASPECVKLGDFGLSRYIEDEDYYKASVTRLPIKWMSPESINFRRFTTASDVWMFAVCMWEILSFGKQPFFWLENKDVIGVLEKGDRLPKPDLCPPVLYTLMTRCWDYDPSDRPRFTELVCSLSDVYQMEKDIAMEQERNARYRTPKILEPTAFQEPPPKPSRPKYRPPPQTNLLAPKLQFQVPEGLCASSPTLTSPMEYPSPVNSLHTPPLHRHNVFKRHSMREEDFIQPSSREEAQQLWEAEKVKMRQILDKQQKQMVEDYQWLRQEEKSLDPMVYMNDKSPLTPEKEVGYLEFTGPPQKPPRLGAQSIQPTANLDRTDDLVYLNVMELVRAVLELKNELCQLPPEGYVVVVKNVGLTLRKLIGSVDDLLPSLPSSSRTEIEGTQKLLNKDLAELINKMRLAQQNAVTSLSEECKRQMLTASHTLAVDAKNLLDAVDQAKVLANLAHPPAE
- method summary: Tyrosine kinase inhibition assay
- Type: biochemical
- experimental setup: single concentration 1.0 μM, read-out: percent inhibition
Please enter Met where inhibition at 1 µM is greater than or equal to 70%, and Not met where it is lower.

Prompt: # bool: inhibition at 1 µM of "COc1cc2nccc(Oc3ccc(NC(=O)C4(NC(=O)c5ccc(F)cc5)CC4)cc3F)c2cc1Oc1c(F)cc(N)cc1F" >= 70%
Completion: Not met

Prompt: # bool: inhibition at 1 µM of "COc1cc2nccc(Oc3ccc(NC(=O)C4(C(=O)Nc5ccc(F)cc5)CC4)cc3F)c2cc1Oc1ccc(N)cc1F" >= 70%
Completion: Met

Prompt: # bool: inhibition at 1 µM of "COc1cc2nccc(Oc3ccc(NC(=O)C4(NC(=O)c5ccc(F)cc5)CC4)cc3F)c2cc1OC" >= 70%
Completion: Not met

Prompt: # bool: inhibition at 1 µM of "COc1cc2nccc(Oc3ccc(NC(=O)C4(NC(=O)c5ccc(F)cc5)CC4)cc3F)c2cc1Oc1ccc(N)cc1F" >= 70%
Completion: Not met

----------
Please go through the items and note down their inhibition at 1 µM.
- assay system: ROS1 (Homo sapiens, UniProt P08922)
- Sequence (P08922 28-2347): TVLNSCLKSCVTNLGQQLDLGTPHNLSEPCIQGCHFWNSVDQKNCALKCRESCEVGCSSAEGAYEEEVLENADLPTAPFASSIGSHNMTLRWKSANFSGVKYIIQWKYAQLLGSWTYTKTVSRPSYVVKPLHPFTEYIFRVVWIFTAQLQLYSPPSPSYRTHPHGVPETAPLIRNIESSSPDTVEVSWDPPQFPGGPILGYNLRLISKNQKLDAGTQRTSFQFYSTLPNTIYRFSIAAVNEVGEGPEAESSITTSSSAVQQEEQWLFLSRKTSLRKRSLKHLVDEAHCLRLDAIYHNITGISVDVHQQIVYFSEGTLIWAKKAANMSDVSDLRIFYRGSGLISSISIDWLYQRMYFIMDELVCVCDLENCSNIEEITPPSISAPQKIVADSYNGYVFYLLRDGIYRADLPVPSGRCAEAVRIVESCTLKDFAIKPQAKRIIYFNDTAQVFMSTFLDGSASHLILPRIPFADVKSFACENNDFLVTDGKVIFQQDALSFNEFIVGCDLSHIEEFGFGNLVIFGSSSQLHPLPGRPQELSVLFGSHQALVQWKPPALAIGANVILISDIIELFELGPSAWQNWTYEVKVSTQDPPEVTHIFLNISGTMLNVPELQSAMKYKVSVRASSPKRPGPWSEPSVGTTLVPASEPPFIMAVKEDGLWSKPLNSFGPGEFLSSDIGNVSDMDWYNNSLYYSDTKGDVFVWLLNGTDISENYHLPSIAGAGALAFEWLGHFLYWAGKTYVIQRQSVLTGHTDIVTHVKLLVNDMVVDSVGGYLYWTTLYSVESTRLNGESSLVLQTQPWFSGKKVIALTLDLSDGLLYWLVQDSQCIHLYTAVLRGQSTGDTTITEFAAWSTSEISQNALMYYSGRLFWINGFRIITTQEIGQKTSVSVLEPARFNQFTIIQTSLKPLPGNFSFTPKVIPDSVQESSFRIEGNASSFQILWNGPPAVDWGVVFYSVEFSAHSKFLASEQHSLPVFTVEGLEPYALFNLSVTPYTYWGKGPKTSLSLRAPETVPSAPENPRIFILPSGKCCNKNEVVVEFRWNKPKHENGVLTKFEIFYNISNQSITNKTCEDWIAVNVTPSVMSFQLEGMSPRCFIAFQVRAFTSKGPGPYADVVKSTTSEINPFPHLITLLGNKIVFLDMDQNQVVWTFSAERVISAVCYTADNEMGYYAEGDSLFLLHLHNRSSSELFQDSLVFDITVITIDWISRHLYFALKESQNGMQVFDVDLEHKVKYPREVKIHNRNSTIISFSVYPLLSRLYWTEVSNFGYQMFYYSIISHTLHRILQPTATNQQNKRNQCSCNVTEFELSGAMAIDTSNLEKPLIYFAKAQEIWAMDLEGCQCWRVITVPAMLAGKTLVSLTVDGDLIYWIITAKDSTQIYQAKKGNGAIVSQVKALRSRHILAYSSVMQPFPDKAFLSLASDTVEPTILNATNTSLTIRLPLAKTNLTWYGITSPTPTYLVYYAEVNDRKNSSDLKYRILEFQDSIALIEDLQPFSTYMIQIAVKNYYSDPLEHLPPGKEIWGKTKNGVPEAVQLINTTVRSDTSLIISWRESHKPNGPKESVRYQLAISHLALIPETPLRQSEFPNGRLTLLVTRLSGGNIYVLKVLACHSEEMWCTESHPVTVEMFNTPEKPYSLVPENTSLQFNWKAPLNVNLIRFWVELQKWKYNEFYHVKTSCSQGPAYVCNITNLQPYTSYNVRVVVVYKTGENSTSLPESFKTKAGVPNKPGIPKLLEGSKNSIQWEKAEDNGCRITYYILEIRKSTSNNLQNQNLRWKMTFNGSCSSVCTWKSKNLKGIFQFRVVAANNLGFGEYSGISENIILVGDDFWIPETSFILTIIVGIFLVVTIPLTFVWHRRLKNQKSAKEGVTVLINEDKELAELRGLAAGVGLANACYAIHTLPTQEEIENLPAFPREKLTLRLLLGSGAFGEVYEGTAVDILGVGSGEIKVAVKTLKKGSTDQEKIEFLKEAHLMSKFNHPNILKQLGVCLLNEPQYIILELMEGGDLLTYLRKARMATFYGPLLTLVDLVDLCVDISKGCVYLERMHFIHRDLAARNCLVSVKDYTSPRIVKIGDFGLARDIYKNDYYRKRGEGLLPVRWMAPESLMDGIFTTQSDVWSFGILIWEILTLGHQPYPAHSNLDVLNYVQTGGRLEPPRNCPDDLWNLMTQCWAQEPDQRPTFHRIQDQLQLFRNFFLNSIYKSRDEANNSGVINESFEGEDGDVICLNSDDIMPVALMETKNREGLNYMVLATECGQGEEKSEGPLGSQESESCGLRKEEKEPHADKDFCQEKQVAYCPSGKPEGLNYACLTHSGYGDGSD
- method summary: Tyrosine kinase inhibition assay
- Type: biochemical
- experimental setup: single concentration 1.0 μM, read-out: percent inhibition
Quick reminder: number only, in %, skip the unit.

Prompt: Answer with reported inhibition at 1 µM of "COc1cc2nccc(Oc3ccc(NC(=O)C4(NC(=O)c5ccc(F)cc5)CC4)cc3F)c2cc1Oc1c(F)cc(N)cc1F"
Completion: 97

Prompt: Answer with reported inhibition at 1 µM of "COc1cc2nccc(Oc3ccc(NC(=O)C4(NC(=O)c5ccc(F)cc5)CC4)cc3F)c2cc1Oc1ccc(N)cc1F"
Completion: 95

Prompt: Answer with reported inhibition at 1 µM of "COc1cc2nccc(Oc3ccc(NC(=O)C4(NC(=O)c5ccc(F)cc5)CC4)cc3F)c2cc1OC"
Completion: 56

Prompt: Answer with reported inhibition at 1 µM of COc1cc2nccc(Oc3ccc(NC(=O)C4(C(=O)Nc5ccc(F)cc5)CC4)cc3)c2cc1OC [Cabozantinib, reference compound]
Completion: 87

Prompt: Answer with reported inhibition at 1 µM of "COc1cc2nccc(Oc3ccc(NC(=O)C4(C(=O)Nc5ccc(F)cc5)CC4)cc3F)c2cc1Oc1ccc(N)cc1F"
Completion: 100

----------
- assay system: JAK1 (Homo sapiens)
- Sequence (P23458 whole entry): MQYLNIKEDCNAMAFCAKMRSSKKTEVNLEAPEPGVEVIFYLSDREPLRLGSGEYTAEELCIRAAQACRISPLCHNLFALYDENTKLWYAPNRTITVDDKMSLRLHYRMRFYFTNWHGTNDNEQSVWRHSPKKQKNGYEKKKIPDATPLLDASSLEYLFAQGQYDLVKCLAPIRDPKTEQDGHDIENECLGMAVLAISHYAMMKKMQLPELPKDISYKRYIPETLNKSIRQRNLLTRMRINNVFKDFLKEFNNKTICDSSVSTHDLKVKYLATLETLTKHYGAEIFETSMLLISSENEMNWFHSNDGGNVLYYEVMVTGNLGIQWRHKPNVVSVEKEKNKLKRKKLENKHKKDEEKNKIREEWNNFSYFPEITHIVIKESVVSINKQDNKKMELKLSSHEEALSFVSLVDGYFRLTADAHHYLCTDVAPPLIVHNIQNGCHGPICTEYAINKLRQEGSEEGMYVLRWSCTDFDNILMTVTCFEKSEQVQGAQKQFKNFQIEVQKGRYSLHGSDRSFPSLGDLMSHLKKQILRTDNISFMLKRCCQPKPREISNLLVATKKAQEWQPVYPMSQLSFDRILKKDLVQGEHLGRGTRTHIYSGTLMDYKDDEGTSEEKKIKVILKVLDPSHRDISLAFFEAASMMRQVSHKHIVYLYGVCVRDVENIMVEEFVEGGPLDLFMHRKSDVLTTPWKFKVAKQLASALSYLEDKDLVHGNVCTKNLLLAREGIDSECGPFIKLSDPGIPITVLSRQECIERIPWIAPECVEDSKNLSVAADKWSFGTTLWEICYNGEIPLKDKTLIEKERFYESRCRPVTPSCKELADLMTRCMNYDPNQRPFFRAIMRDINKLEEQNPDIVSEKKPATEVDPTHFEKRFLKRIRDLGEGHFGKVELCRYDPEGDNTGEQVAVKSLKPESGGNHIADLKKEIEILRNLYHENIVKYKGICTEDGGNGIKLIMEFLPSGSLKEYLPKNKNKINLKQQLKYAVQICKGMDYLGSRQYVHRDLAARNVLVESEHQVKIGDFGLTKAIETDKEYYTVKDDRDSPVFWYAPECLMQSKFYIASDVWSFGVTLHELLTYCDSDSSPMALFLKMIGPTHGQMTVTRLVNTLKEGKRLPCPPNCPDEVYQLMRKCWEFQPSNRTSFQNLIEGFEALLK
- method summary: Tyrosine kinase inhibition assay
- Type: biochemical
- experimental setup: single concentration 1.0 μM, read-out: percent inhibition
Please go through the items and note down their inhibition at 1 µM.
Quick reminder: number only, in %, skip the unit.

Prompt: Answer with reported inhibition at 1 µM of "COc1cc2nccc(Oc3ccc(NC(=O)C4(NC(=O)c5ccc(F)cc5)CC4)cc3F)c2cc1Oc1ccc(N)cc1F"
Completion: 2

Prompt: Answer with reported inhibition at 1 µM of "COc1cc2nccc(Oc3ccc(NC(=O)C4(C(=O)Nc5ccc(F)cc5)CC4)cc3F)c2cc1Oc1ccc(N)cc1F"
Completion: 4

Prompt: Answer with reported inhibition at 1 µM of "COc1cc2nccc(Oc3ccc(NC(=O)C4(NC(=O)c5ccc(F)cc5)CC4)cc3F)c2cc1Oc1c(F)cc(N)cc1F"
Completion: 1

Prompt: Answer with reported inhibition at 1 µM of "COc1cc2nccc(Oc3ccc(NC(=O)C4(NC(=O)c5ccc(F)cc5)CC4)cc3F)c2cc1OC"
Completion: 1

Prompt: Answer with reported inhibition at 1 µM of COc1cc2nccc(Oc3ccc(NC(=O)C4(C(=O)Nc5ccc(F)cc5)CC4)cc3)c2cc1OC [Cabozantinib, reference compound]
Completion: 0
